// provenance: PubChem BioAssay AID1159580

experiment: chemical genetic growth profiling, strain panel (AID 1159580);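 also: tested at 20 µM; growth read once vehicle control cultures reached saturation at 30 °C; 1 = growth at the plate median or of vehicle wells; lower values mean less growth of the strain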; conditions: S. cerevisiae deletion strains, growth OD, locus YDR137W, strain rgp1, hits give low values
The whole screen tested about 5,500 compounds, of which about 2,000 (36%) were called active. About 18% were inconclusive and are not listed. This is one part of the list.
Please use y for normalized growth under 1 and n for everything else, ties included.

compound="CC1(C)CC[C@]2(C(=O)O)CC[C@]3(C)C(=CCC4[C@@]5(C)CC[C@@H](O)C(C)(C)C5CC[C@]43C)C2C1 (stereo partly specified)" label=n
compound=Nc1ccc(S(=O)(=O)Nc2ccnn2-c2ccccc2)cc1 label=y
compound="CCC(C)C(NC)C(=O)O (stereo unspecified)" label=n
compound=O=C(CNC(=O)c1ccc(Cl)cc1)NO label=n

----------
assay: chemical genetic growth profiling, strain panel (AID 1159580);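 also: tested at 20 µM; growth read once vehicle control cultures reached saturation at 30 °C; 1 = growth at the plate median or of vehicle wells; lower values mean less growth of the strain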; conditions: S. cerevisiae deletion strains, growth OD, locus YDR162C, strain NBP2, hits give low values
Out of some 5,500 compounds screened, about 2,000 (36%) were called active. Another 18% or so got no clear call; they are omitted. Some of the results follow. Where a SMILES comes first, the peptide text is derived from it. The star is where a group is joined. For = O=C*
property_measured: normalized growth

molecule=Cc1ccc(-c2cc(C(F)(F)F)nn2-c2ccc(S(N)(=O)=O)cc2)cc1 endpoint_value=0.988
molecule="OC(CCN1CCCC1)(c1ccccc1)C1CCCCC1 (stereo not given)" endpoint_value=0.995
molecule=COc1ccc2c3c([nH]c2c1)C(C)=NCC3 endpoint_value=1
molecule=CC(C)(Sc1cc(C(C)(C)C)c(O)c(C(C)(C)C)c1)Sc1cc(C(C)(C)C)c(O)c(C(C)(C)C)c1 endpoint_value=1.01
molecule="O=C(O)/C=C1\\CCCc2ccccc2C1O (stereo not given)" endpoint_value=0.987
molecule=NNc1nncc2ccccc12 endpoint_value=1.01
molecule="C[C@@H]1OC(O[C@H]2[C@H](O)[C@@H](O)[C@H](OC[C@H]3O[C@@H](OC(=O)[C@]45CCC(C)(C)CC4C4=CCC6[C@@]7(C)CC[C@H](OC8OC[C@H](O)[C@H](O)[C@H]8OC8O[C@@H](C)[C@H](O)[C@@H](O)[C@H]8O)[C@@](C)(CO)C7CC[C@@]6(C)[C@]4(C)CC5)[C@H](O)[C@@H](O)[C@@H]3O)O[C@@H]2CO)[C@H](O)[C@H](O)[C@H]1O (stereo not given in full)" endpoint_value=1.02
molecule="CSCCC(NC=O)C(=O)NC(Cc1ccccc1)C(=O)O (stereo not drawn) (For-Met-Phe-OH; configuration not given here)" endpoint_value=1.01
molecule=CNC(=O)O/N=C\C(C)(C)SC endpoint_value=1.01
molecule="Cc1ccc(S(=O)(=O)NC(=O)NN2CC3CCCC3C2)cc1 (stereo not given)" endpoint_value=0.994
molecule="Nc1c2c(nc3ccccc13)CCCC2O (stereo not given)" endpoint_value=0.985
molecule="CCC(C)C(=O)O[C@H]1[C@H](O)C2C(CN3CC(C)CCC3[C@@]2(C)O)C2C[C@]34O[C@]5(O)C(OC(=O)C(C)(O)CC)CC[C@@]3(C)C5C(OC(C)=O)[C@@H](OC(C)=O)C4[C@@]21O (stereo not given in full)" endpoint_value=1.02
molecule=COC(=O)Nc1nc2ccc(Sc3ccccc3)cc2[nH]1 endpoint_value=1
molecule=Cc1cn([C@H]2C[C@H](N=[N+]=[N-])[C@@H](CO)O2)c(=O)[nH]c1=O endpoint_value=1
molecule=COc1cc(N)c(Cl)cc1C(=O)NC1CCN(Cc2ccccc2)CC1 endpoint_value=0.996
